Value source: ChEMBL document CHEMBL1154339

assay-explanation: Inhibition of glycogen phosphorylase assessed as inorganic phosphate release at 100 uM
attribute-measured: inhibition

Answered cases to consult:
{"columns": ["compound", "reported"],
 "data": [
  ["Cc1cc(=O)oc2c3c(ccc12)OCC(CO)(CN1CCCC1)C3=O (stereo not given)", "8.3%"],
  ["Cc1cc(=O)oc2c3c(ccc12)OCC(CN1CCCCC1)(CN1CCCCC1)C3=O", "17.2%"],
  ["CCCCN(CCCC)CC1(COCC)COc2ccc3c(C)cc(=O)oc3c2C1=O (stereo not given)", "8.7%"]
]}

Then this compound:
[in] What value of inhibition has been recorded for this entry: `Cc1cc(=O)oc2c3c(ccc12)OCC(CN1CCN(C)CC1)(CN1CCN(C)CC1)C3=O`
[out] 10.2%

---

target-of-assay: Glucose-6-phosphatase catalytic subunit 1 (Homo sapiens) (UniProt P35575)
Sequence (P35575 whole entry): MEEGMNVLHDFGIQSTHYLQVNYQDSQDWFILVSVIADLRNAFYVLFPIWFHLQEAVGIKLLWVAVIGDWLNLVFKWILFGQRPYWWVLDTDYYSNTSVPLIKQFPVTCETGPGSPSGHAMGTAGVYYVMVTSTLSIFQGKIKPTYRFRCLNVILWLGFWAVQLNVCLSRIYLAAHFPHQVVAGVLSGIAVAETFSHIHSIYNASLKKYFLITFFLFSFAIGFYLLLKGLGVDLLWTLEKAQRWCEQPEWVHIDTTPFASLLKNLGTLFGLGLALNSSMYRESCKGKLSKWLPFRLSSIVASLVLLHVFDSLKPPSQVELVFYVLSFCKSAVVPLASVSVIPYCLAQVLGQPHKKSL
assay-explanation: Inhibition of glucose 6 phosphatase assessed as inorganic phosphate release at 100 uM
attribute-measured: inhibition (%)

Answered cases to consult:
{"columns": ["compound", "reported"],
 "data": [
  ["Cc1cc(=O)oc2c3c(ccc12)OCC(CN1CCCCC1)(CN1CCCCC1)C3=O", 13.8],
  ["CCCCN(CCCC)CC1(CN(CCCC)CCCC)COc2ccc3c(C)cc(=O)oc3c2C1=O", 20.4],
  ["CCOCC1(CN(CC)CC)COc2ccc3c(C)cc(=O)oc3c2C1=O (stereo not given)", 24.2]
]}

(A) CCN(CC)CC1(CN(CC)CC)COc2ccc3c(C)cc(=O)oc3c2C1=O
(B) Cc1cc(=O)oc2c3c(ccc12)OCC(CN1CCN(c2ccccc2)CC1)(CN1CCN(c2ccccc2)CC1)C3=O
[in] Which shows the larger inhibition value: A or B ? Field: selected label. Fill in the label of the entry you choose.
[out] B
(B: 21.5%, A: 9.45%)

---

assay-explanation: Inhibition of glycogen phosphorylase assessed as inorganic phosphate release at 100 uM
attribute-measured: inhibition

{"columns": ["compound", "attribute-measured", "reported"],
 "data": [
  ["CCOCC1(CN2CCCC2)COc2ccc3c(C)cc(=O)oc3c2C1=O (stereo not given)", "inhibition", "8.3%"]
]}

[in] What value of inhibition has been recorded for this entry: CCOCC1(CN2CCCCC2)COc2ccc3c(C)cc(=O)oc3c2C1=O (stereo not given)
[out] 8.5%

[in] What value of inhibition has been recorded for this entry: `Cc1cc(=O)oc2c3c(ccc12)OCC(CN1CCOCC1)(CN1CCOCC1)C3=O`
[out] 12.8%

[in] What value of inhibition has been recorded for this entry: `CCN(CC)CC1(CN(CC)CC)COc2ccc3c(C)cc(=O)oc3c2C1=O`
[out] 12.2%

---

target-of-assay: Tyrosine-protein phosphatase non-receptor type 1 (Homo sapiens) (UniProt P18031)
Sequence (P18031 whole entry): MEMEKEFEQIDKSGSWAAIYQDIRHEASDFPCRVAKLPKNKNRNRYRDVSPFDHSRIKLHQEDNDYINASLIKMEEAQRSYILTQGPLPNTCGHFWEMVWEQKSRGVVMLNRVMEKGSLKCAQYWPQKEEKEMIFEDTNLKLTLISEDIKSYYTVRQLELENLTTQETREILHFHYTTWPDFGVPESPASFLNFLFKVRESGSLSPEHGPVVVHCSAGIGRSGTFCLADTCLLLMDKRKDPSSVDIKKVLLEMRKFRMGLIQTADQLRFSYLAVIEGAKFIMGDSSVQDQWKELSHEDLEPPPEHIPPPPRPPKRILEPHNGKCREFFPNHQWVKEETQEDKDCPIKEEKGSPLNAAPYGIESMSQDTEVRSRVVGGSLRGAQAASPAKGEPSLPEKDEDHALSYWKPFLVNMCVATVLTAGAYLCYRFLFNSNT
assay-explanation: Inhibition of PTP1B at 100 uM
attribute-measured: inhibition (%)

{"columns": ["molecule", "inhibition (%)"],
 "data": [
  ["Cc1cc(=O)oc2c3c(ccc12)OCC(CO)(CN1CCCC1)C3=O (stereo not drawn)", 74.6],
  ["CCOCC1(CN2CCN(C)CC2)COc2ccc3c(C)cc(=O)oc3c2C1=O (stereo not drawn)", 70.3],
  ["CCOCC1(CN(CC)CC)COc2ccc3c(C)cc(=O)oc3c2C1=O (stereo not drawn)", 74.1]
]}
